I'd appreciate it if you could supply self-aminoacylation values for the items below.
System: biotinyl-Trp-oxazolone
Test: self-aminoacylation, catalytic enhancement (BWO) (fold over background); higher = more active; k-Seq, kA / k0A0; sequences stand for … in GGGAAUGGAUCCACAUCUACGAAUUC…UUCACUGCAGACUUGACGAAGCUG
Variants at the floor of the assay were thinned out.

ACUGCCCUGGUCAUCGAGUGA [Fam2.1 aminoacylation ribozyme variant] yielded self-aminoacylation of 37.1

AUUACCCUGGUCAUAGAGCGA [Fam2.1 aminoacylation ribozyme variant] yielded self-aminoacylation of 1.18

AUUCCCCUAGGUCAUCAGGUG [Fam2.2 aminoacylation ribozyme variant] yielded self-aminoacylation of 7.46

AAGUUUGCUAAUAAUCACAAG [Fam3.1 aminoacylation ribozyme variant] yielded self-aminoacylation of 1.1

CUUACCCUGUUCAUCGAGUGA [Fam2.1 aminoacylation ribozyme variant] yielded self-aminoacylation of 6.94

CUCACCCUGGUCAUCGAGUGA [Fam2.1 aminoacylation ribozyme variant] yielded self-aminoacylation of 6.74

AUUCCCCGAGGUCAUCGGGUG [Fam2.2 aminoacylation ribozyme variant] yielded self-aminoacylation of 20.2

AUACACCUAGGUCAUCGGGCG [Fam2.2 aminoacylation ribozyme variant] yielded self-aminoacylation of 2.86

AUACACCUAGCUCAUCGGGUG [Fam2.2 aminoacylation ribozyme variant] yielded self-aminoacylation of 1.24

CCACACUUAAAGCGAUCGGUC [Fam1B.1 aminoacylation ribozyme variant] yielded self-aminoacylation of 0.934

CUACAUCAAACAAUCGGUCUU [Fam1A.1 aminoacylation ribozyme variant] yielded self-aminoacylation of 1.25

AAGUUUGCUAAUAUUCCCAAG [Fam3.1 aminoacylation ribozyme variant] yielded self-aminoacylation of 2.1

AUCCACUUAGGUCAUCGGGUG [Fam2.2 aminoacylation ribozyme variant] yielded self-aminoacylation of 7.26

AUUCUCCUAGGUCAUCGGGCG [Fam2.2 aminoacylation ribozyme variant] yielded self-aminoacylation of 4.23

CUCGUUCAAACAAUCGGUCUG [Fam1A.1 aminoacylation ribozyme variant] yielded self-aminoacylation of 6.95

AGUACGCUGGUCAUCGAGUGA [Fam2.1 aminoacylation ribozyme variant] yielded self-aminoacylation of 5.19

CUUCUGCAAACAAUCGGUCUG [Fam1A.1 aminoacylation ribozyme variant] yielded self-aminoacylation of 0.919

AUUCUCCUGGGUCAUCGGGUG [Fam2.2 aminoacylation ribozyme variant] yielded self-aminoacylation of 9.42

AUUACCCUGGUAAUCGAGAGA [Fam2.1 aminoacylation ribozyme variant] yielded self-aminoacylation of 0.573

CUACUUCAAACAAUCGUUGUG [Fam1A.1 aminoacylation ribozyme variant] yielded self-aminoacylation of 1.38

AUUCACCUAGGUCAUCGGAUA [Fam2.2 aminoacylation ribozyme variant] yielded self-aminoacylation of 0.615

AUUACGCUGGUCAUUGAGUGA [Fam2.1 aminoacylation ribozyme variant] yielded self-aminoacylation of 6.92

AUUCACCCAGGUCAUCGGGUC [Fam2.2 aminoacylation ribozyme variant] yielded self-aminoacylation of 1.39

UUUCACCGAGGUCAUCGGGUG [Fam2.2 aminoacylation ribozyme variant] yielded self-aminoacylation of 6.08

AAGUUUGCUAAUAGACGCAAG [Fam3.1 aminoacylation ribozyme variant] yielded self-aminoacylation of 0.574

CCACUUCAAUCAAUCGGUCUG [Fam1A.1 aminoacylation ribozyme variant] yielded self-aminoacylation of 29.4

CUCCUUCAAACAAUCGGUCCG [Fam1A.1 aminoacylation ribozyme variant] yielded self-aminoacylation of 6.67

CCACACUUCCAGCAAUCGUUC [Fam1B.1 aminoacylation ribozyme variant] yielded self-aminoacylation of 0.75

UUUUCCCUGGUCAUCGAGUGA [Fam2.1 aminoacylation ribozyme variant] yielded self-aminoacylation of 14.3

AGUCACAUAGGUCAUCGGGUG [Fam2.2 aminoacylation ribozyme variant] yielded self-aminoacylation of 9.51

CAACACUUCAAGCUAUCGGUC [Fam1B.1 aminoacylation ribozyme variant] yielded self-aminoacylation of 1.02

AUUCAUCUAGGUCAUCGGGCG [Fam2.2 aminoacylation ribozyme variant] yielded self-aminoacylation of 2.66

AUUACCCUGGUCGUGGAGUGA [Fam2.1 aminoacylation ribozyme variant] yielded self-aminoacylation of 2.5

CCACACGUCAAGCAAUCUGUC [Fam1B.1 aminoacylation ribozyme variant] yielded self-aminoacylation of 0.24

CGACUUCAAACAAUCGGUCUC [Fam1A.1 aminoacylation ribozyme variant] yielded self-aminoacylation of 31.1

====

Tested on: biotinyl-Ile-oxazolone
Test: self-aminoacylation, catalytic enhancement (BIO) (fold over background); higher = more active; k-Seq, kA / k0A0; sequences stand for … in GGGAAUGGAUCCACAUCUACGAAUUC…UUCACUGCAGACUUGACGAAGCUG
Fewer inactive variants are shown than the library holds.
I'd appreciate it if you could supply self-aminoacylation values for the items below.
Lab note: record just the number, no unit beside it.

AUUCCCCUGAUCAUCGAGUGA [Fam2.1 aminoacylation ribozyme variant] yielded self-aminoacylation of 3.81

CUACUUCAAAGGAUCGGUCUG [Fam1A.1 aminoacylation ribozyme variant] yielded self-aminoacylation of 0.925

CCACACUUGAACCAAUCGGUC [Fam1B.1 aminoacylation ribozyme variant] yielded self-aminoacylation of 0.804

CCACCCGUCAAGCAAUCGGUC [Fam1B.1 aminoacylation ribozyme variant] yielded self-aminoacylation of 1.24

CUACUUCAAACGAUCAGUCUG [Fam1A.1 aminoacylation ribozyme variant] yielded self-aminoacylation of 0.633

CCACACUGCAAGCAAUCGCUC [Fam1B.1 aminoacylation ribozyme variant] yielded self-aminoacylation of 2.73

CAACUUCAUACAAUCGGUCUG [Fam1A.1 aminoacylation ribozyme variant] yielded self-aminoacylation of 1.06

CUUCUGCAAACAAUCGGUCUG [Fam1A.1 aminoacylation ribozyme variant] yielded self-aminoacylation of 0.957

AUCACCCUCGUCAUCGAGUGA [Fam2.1 aminoacylation ribozyme variant] yielded self-aminoacylation of 2.12

AUUCACCUAGGUGAUCGGGUG [Fam2.2 aminoacylation ribozyme variant] yielded self-aminoacylation of 2.52

AUUACACUGGUCAUCGGGUGA [Fam2.1 aminoacylation ribozyme variant] yielded self-aminoacylation of 5.02

AUUACCUUGGUCAUCGAGUGA [Fam2.1 aminoacylation ribozyme variant] yielded self-aminoacylation of 3.7

AUUACCCUAGUCAUCCAGUGA [Fam2.1 aminoacylation ribozyme variant] yielded self-aminoacylation of 1.91

CUUCUUCAAACAAUCGGUCAG [Fam1A.1 aminoacylation ribozyme variant] yielded self-aminoacylation of 0.818

AGUUACCUAGGUCAUCGGGUG [Fam2.2 aminoacylation ribozyme variant] yielded self-aminoacylation of 4.59

AUCACCCAGGUCAUCGAGUGA [Fam2.1 aminoacylation ribozyme variant] yielded self-aminoacylation of 4.04

AAGUUCACUAAUAGUCGCAAG [Fam3.1 aminoacylation ribozyme variant] yielded self-aminoacylation of 1.96

AUUCAUCUAGGACAUCGGGUG [Fam2.2 aminoacylation ribozyme variant] yielded self-aminoacylation of 2.75

AUUCUCCUGGGUCAUCGGGUG [Fam2.2 aminoacylation ribozyme variant] yielded self-aminoacylation of 6.05

CCACACUUCAGGCAACCGGUC [Fam1B.1 aminoacylation ribozyme variant] yielded self-aminoacylation of 1.89

CCACACGUCUAGCAAUCGGUC [Fam1B.1 aminoacylation ribozyme variant] yielded self-aminoacylation of 1.01

AUGACCCUGGUCAUCGAGUUA [Fam2.1 aminoacylation ribozyme variant] yielded self-aminoacylation of 2.81

AUUCAACUAGGUCAUCGAGUG [Fam2.2 aminoacylation ribozyme variant] yielded self-aminoacylation of 1.55

CCACCCUUCAAGCAAUCGGAC [Fam1B.1 aminoacylation ribozyme variant] yielded self-aminoacylation of 1.04

AAGUUUGCUAAUAGUCGCAUU [Fam3.1 aminoacylation ribozyme variant] yielded self-aminoacylation of 1.37

CCACACUCCACGCAAUCGGUC [Fam1B.1 aminoacylation ribozyme variant] yielded self-aminoacylation of 1.51

CAACUUCAAACAAUGGGUCUG [Fam1A.1 aminoacylation ribozyme variant] yielded self-aminoacylation of 1.21

CCACACUUAAAGCAAUCGGCC [Fam1B.1 aminoacylation ribozyme variant] yielded self-aminoacylation of 1.72

AAGUUCGCAAAUAGUCGCAAG [Fam3.1 aminoacylation ribozyme variant] yielded self-aminoacylation of 1.84

AUUAUCCUAGGUCAUCGGGUG [Fam2.2 aminoacylation ribozyme variant] yielded self-aminoacylation of 6.74

CCACACUGCAAGCAAUCGGUA [Fam1B.1 aminoacylation ribozyme variant] yielded self-aminoacylation of 2.19

AUUCACCUACGUCAUCGAGUG [Fam2.2 aminoacylation ribozyme variant] yielded self-aminoacylation of 2.45

CUACUUCGAACAAUCGGCCUG [Fam1A.1 aminoacylation ribozyme variant] yielded self-aminoacylation of 1.6

AUAUUUCAAACAAUCGGUCUG [Fam1A.1 aminoacylation ribozyme variant] yielded self-aminoacylation of 0.897

AACUUUGCUAACAGUCGCAAG [Fam3.1 aminoacylation ribozyme variant] yielded self-aminoacylation of 2.17
